Test: solvent given as SMILES
Conditions: in CCOC(C)=O
Just a reminder that ties go to NOT MET: only absorption maximum strictly below 500 nm counts as MET.

{"smilesCode": "CCCCn1c2ccc(/C=C(\\C#N)c3ccc([N+](=O)[O-])cc3)cc2c2cc(Cn3c(-c4ccc5c(c4)c4ccccc4n5CCCC)nc4ccccc43)ccc21", "className": "MET"}
{"smilesCode": "Cn1c(=O)c(/N=N/c2ccc(/N=N/c3ccc(S(=O)(=O)O)cc3)cc2)c(O)c2ccccc21", "className": "MET"}
{"smilesCode": "O=C1NC(=O)c2c1c1c3ccccc3[nH]c1c1[nH]c3ccccc3c21", "className": "MET"}
{"smilesCode": "CC1=[N+]2C(=C(c3ccc(Br)cc3)c3ccc(C)n3[B-]2(F)F)C=C1c1cc2n(c1)[B-](F)(F)[N+]1=CC=CC1=C2c1c(C)cc(C)cc1C", "className": "NOT MET"}
{"smilesCode": "c1ccc(-c2nc3c(c4c2-c2ccccc2CC4)-c2ccccc2CC3)cc1", "className": "MET"}
